// data source = patent US20210230570

assayed target: Factor X (FX), P00742
Sequence (P00742 whole entry, looked up): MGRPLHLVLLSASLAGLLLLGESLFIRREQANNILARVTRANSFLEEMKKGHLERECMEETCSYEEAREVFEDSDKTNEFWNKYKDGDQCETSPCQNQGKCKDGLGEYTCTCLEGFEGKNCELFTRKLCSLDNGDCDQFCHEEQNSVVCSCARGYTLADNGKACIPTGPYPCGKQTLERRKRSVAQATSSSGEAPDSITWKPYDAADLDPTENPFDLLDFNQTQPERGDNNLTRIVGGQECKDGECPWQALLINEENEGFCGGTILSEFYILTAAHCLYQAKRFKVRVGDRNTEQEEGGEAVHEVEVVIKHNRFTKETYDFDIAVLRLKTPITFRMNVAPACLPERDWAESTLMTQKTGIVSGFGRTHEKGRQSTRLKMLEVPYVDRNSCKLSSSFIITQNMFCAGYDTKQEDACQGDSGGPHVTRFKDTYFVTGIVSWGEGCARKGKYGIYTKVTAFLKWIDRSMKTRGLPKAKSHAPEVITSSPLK
property label: kcat of FX activation by FIXa in the Xase complex (FVIIIa, PC/PS vesicles, Ca2+) (s⁻¹)
Give just the numeric value; s⁻¹ need not be written.

Report kcat of FX activation by FIXa in the Xase complex (FVIIIa, PC/PS vesicles, Ca2+) for FIXa-D104N/K106S/R318Y/R338E/T343R/R403E/E410N (protein) chain 1: YNSGKLEEFVQGNLERECMEEKCSFEEAREVFENTERTTEFWKQYVDGDQCESNPCLNGGSCKDDINSYECWCPFGFEGKNCELDVTCNIKNGRCEQFCKNSANNSVVCSCTEGYRLAENQKSCEPAVPFPCGRVSVSQTSKLTR chain 2: VVGGEDAKPGQFPWQVVLNGKVDAFCGGSIVNEKWIVTAAHCVETGVKITVVAGEHNIEETEHTEQKRNVIRIIPHHNYNAAINKYNHDIALLELDEPLVLNSYVTPICIADKEYTNIFLKFGSGYVSGWGRVFHKGYSALVLQYLRVPLVDRATCLESTKFRIYNNMFCAGFHEGGRDSCQGDSGGPHVTEVEGTSFLTGIISWGEECAMKGKYGIYTKVSEYVNWIKNKTKLT please.
5.7
